Cited source: patent US11214803B2

tested on: Yap1 mRNA; test: Antisense inhibition of human Yap1 in A-431 cells by cEt gapmers, single dose (Example 2, RTS4814); format: cell-based; conditions: Table 18; A-431 cells, 5,000 cells per well, free uptake, 2,000 nM modified oligonucleotide, approx. 48 hours; RTS4814; normalized to RIBOGREEN; Yap1 mRNA as percent of untreated control
Strand notation (5' to 3'): a small letter for the sugar, then the base; units joined by * are phosphorothioate-linked, units joined directly phosphodiester-linked; [ ] holds rarer units or linkages, { } end groups; capitals alone tell only the bases. k = constrained ethyl (cEt); [5mC] = 5-methylcytosine; d = 2'-deoxy (DNA)
Measured endpoint: YAP1 (% UTC)

{"columns": ["Substance", "Experimental system", "Unit abbrev", "Data value"],
 "data": [
  ["1074628 (antisense kG*k[5mC]*k[5mC]*dT*dG*dT*dT*dA*dT*dG*dA*dA*d[5mC]*k[5mC]*k[5mC]*kT) [Compound 1074628]", "Yap1 mRNA", "% UTC", 5],
  ["1075236 (antisense kT*kA*kT*dA*dA*dT*dA*d[5mC]*d[5mC]*dA*d[5mC]*dA*dA*kA*kG*kT) [Compound 1075236]", "Yap1 mRNA", "% UTC", 81],
  ["1075108 (antisense k[5mC]*kT*kA*dA*dA*dA*dA*d[5mC]*dA*dT*dT*dG*dT*kG*kG*k[5mC]) [Compound 1075108]", "Yap1 mRNA", "% UTC", 67]
]}
